Exercise: for every item that follows, state its recorded cell viability.
# Tested on: WHIM2 (cells of a triple-negative basal-like breast cancer xenograft);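 also: cells dissociated from PDX tumors propagated in female NSG mouse mammary fat pads, vehicle control 0.1% DMSO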
# testDescription: cell viability (% of vehicle); higher = less cytotoxic
# protocolConditions: 1 µM; 72 h
Counter-ions that a name gives are not always drawn.
The reply should be a number, written without any unit.

Reported cell viability (WHIM2) for entry CCCCc1oc2ccccc2c1C(=O)c1cc(I)c(OCCN(CC)CC)c(I)c1.Cl [Amiodarone HCl] is 94.7

Reported cell viability (WHIM2) for entry C=C1C(=CC=C2CCCC3(C)C2CCC3C(C)CCCC(C)C)CC(O)CC1O (stereo not given) is 51.8

Reported cell viability (WHIM2) for entry CC(C)(C)c1ccc(C(=O)CCCN2CCC(OC(c3ccccc3)c3ccccc3)CC2)cc1 is 107

Reported cell viability (WHIM2) for entry CCc1oc2ccccc2c1C(=O)c1cc(Br)c(O)c(Br)c1 is 102

Reported cell viability (WHIM2) for entry CC(C)C(=O)OCC(=O)[C@@]12O[C@H](C3CCCCC3)O[C@@H]1C[C@H]1[C@@H]3CCC4=CC(=O)C=C[C@]4(C)[C@H]3[C@@H](O)C[C@@]12C [Ciclesonide] is 81.6

Reported cell viability (WHIM2) for entry COc1nc2ccc(Br)cc2cc1[C@@H](c1ccccc1)[C@@](O)(CCN(C)C)c1cccc2ccccc12 [Bedaquiline fumarate] is 97.8

Reported cell viability (WHIM2) for entry CCN(CC)CCCC(C)Nc1ccnc2cc(Cl)ccc12.O=P(O)(O)O.O=P(O)(O)O (stereo not given) [Chloroquine diphosphate] is 77.4

Reported cell viability (WHIM2) for entry CC(CCC(=O)O)C1CCC2C3CCC4CC(O)CCC4(C)C3CCC12C (stereo not given) is 92.9

Reported cell viability (WHIM2) for entry CC(=O)C1(O)Cc2c(O)c3c(c(O)c2C(OC2CC(N)C(O)C(C)O2)C1)C(=O)c1ccccc1C3=O.Cl (stereo not given) [Idarubicin HCl] is 28.8

Reported cell viability (WHIM2) for entry CN1CCN(CCCN2c3ccccc3Sc3ccc(C(F)(F)F)cc32)CC1.Cl.Cl [Trifluoperazine 2HCl] is 102

Reported cell viability (WHIM2) for entry COCCn1c2c([n+](Cc3cnccn3)c1C)C(=O)c1ccccc1C2=O.[Br-] is 21.1

Reported cell viability (WHIM2) for entry CNC(=O)c1cc(Oc2ccc(NC(=O)Nc3ccc(Cl)c(C(F)(F)F)c3)c(F)c2)ccn1.Cl [Regorafenib hydrochloride] is 104

Reported cell viability (WHIM2) for entry Br.Cc1ccc(Sc2ccccc2N2CCNCC2)c(C)c1 is 102

Reported cell viability (WHIM2) for entry COc1ccc(CN2CCN(C(c3ccc(F)cc3)c3ccc(F)cc3)CC2)c(OC)c1OC.Cl.Cl [Lomerizine HCl] is 99.6

Reported cell viability (WHIM2) for entry Cl.Clc1ccccc1CN1CCc2sccc2C1 [Ticlopidine HCl] is 99.6

###

Exercise: for every item that follows, state its recorded cell viability.
# Tested on: HCI13 (cells of an ER-positive luminal breast cancer xenograft)
# testDescription: cell viability (% of vehicle); higher = less cytotoxic
# protocolConditions: 10 µM; 72 h
The reply should be a number, written without any unit.

Given item CCCCCCCCCCCC1=C(O)C(=O)C=C(O)C1=O , the value recorded as its cell viability is 86.3

Given item CNCC(O)C(O)C(O)C(O)CO (stereo unspecified) , the value recorded as its cell viability is 142

Given item CCCC1CC(C(=O)NC(C(C)Cl)C2OC(SC)C(OP(=O)(O)O)C(O)C2O)N(C)C1 (stereo unspecified) [Clindamycin Phosphate] , the value recorded as its cell viability is 86.2

Given item CCCc1nn(C)c2c(=O)nc(-c3cc(S(=O)(=O)N4CCN(C)CC4)ccc3OCC)[nH]c12 , the value recorded as its cell viability is 73.7

Given item CC(C(=O)O)c1ccc2c(c1)Cc1cccnc1O2 (stereo unspecified) , the value recorded as its cell viability is 123

Given item Cc1c(C(=O)Nc2ccc(N3CC(C)OC(C)C3)nc2)cccc1-c1ccc(OC(F)(F)F)cc1 (stereo unspecified) , the value recorded as its cell viability is 69.7

Given item O=C1CCc2cc(OCCCCc3nnnn3C3CCCCC3)ccc2N1 , the value recorded as its cell viability is 126

Given item CN(C)c1ccc(C(=C2C=CC(=[N+](C)C)C=C2)c2ccc(N(C)C)cc2)cc1.[Cl-] , the value recorded as its cell viability is 24.7

Given item CC(=O)Nc1ccc(O)cc1 , the value recorded as its cell viability is 116

Given item COc1cc(Nc2ncc3c(n2)-c2ccc(Cl)cc2C(c2c(F)cccc2OC)=NC3)ccc1C(=O)O , the value recorded as its cell viability is 94.9

Given item CC1CC(=O)NN=C1c1ccc(NN=C(C#N)C#N)cc1 (stereo unspecified) , the value recorded as its cell viability is 145

Given item CC(O)C1C(=O)N2C(C(=O)O)=C(SC3CNC(C(=O)N(C)C)C3)C(C)C12.O.O.O (stereo unspecified) [Meropenem trihydrate] , the value recorded as its cell viability is 95

Given item CCCCCN(C)CCC(O)(P(=O)([O-])O)P(=O)(O)O.O.[Na+] [Ibandronate sodium] , the value recorded as its cell viability is 126

Given item CNS(=O)(=O)Cc1ccc2[nH]cc(CCN(C)C)c2c1 , the value recorded as its cell viability is 126

Given item COC1C(OC(N)=O)C(O)C(Oc2ccc3c(O)c(NC(=O)c4ccc([O-])c(CC=C(C)C)c4)c(=O)oc3c2C)OC1(C)C.[Na+] (stereo unspecified) [Novobiocin Sodium] , the value recorded as its cell viability is 140

Given item Cl.O=C1c2cccc3c2C(CCC3)CN1C1CN2CCC1CC2 (stereo unspecified) [Palonosetron HCl] , the value recorded as its cell viability is 100

###

# Test system: UCD52 (cells of a triple-negative basal-like breast cancer xenograft)
# testDescription: cell viability (% of vehicle); higher = less cytotoxic
# protocolConditions: 10 µM; 72 h
Friendly reminder: cell viability below 90 is Condition met, at or above is Condition not met.

Is 90 strictly greater than the compound's reported cell viability? compound: Cc1ncc(C[n+]2csc(CCO)c2C)c(N)n1.Cl.[Cl-] [Thiamine HCl (Vitamin B1)]
Condition not met

Is 90 strictly greater than the compound's reported cell viability? compound: Oc1ccc(OCc2ccccc2)cc1 [Monobenzone]
Condition not met

Is 90 strictly greater than the compound's reported cell viability? compound: C#Cc1cccc(Nc2ncnc3cc(OCCOC)c(OCCOC)cc23)c1 [Erlotinib]
Condition met

Is 90 strictly greater than the compound's reported cell viability? compound: Cc1c(NC(=O)c2cccnc2)c(=O)n(-c2ccccc2)n1C [Nifenazone]
Condition not met

Is 90 strictly greater than the compound's reported cell viability? compound: Nc1nc(F)nc2c1ncn2C1OC(CO)C(O)C1O (configuration not stated) [Fludarabine]
Condition not met

Is 90 strictly greater than the compound's reported cell viability? compound: CCC(C)(C)c1ccc(CC(C)CN2CC(C)OC(C)C2)cc1.Cl (configuration not stated) [Amorolfine HCl]
Condition met

Is 90 strictly greater than the compound's reported cell viability? compound: Cl.O=C(CCCN1CCC(O)(c2ccc(Cl)cc2)CC1)c1ccc(F)cc1 [Haloperidol hydrochloride]
Condition met

Is 90 strictly greater than the compound's reported cell viability? compound: COc1cccc2c1C(=O)c1c(O)c3c(c(O)c1C2=O)CC(O)(C(=O)CO)CC3OC1CC(N)C(O)C(C)O1.Cl (configuration not stated) [Epirubicin HCl]
Condition met

Is 90 strictly greater than the compound's reported cell viability? compound: O=C(NS(=O)(=O)c1ccc(Br)s1)c1ccc(Cl)cc1Cl [Tasisulam]
Condition not met

Is 90 strictly greater than the compound's reported cell viability? compound: CCOC(=O)C1=C(C)NC(C)=C(C(=O)OCC)C1c1ccccc1C=CC(=O)OC(C)(C)C [Lacidipine]
Condition met

Is 90 strictly greater than the compound's reported cell viability? compound: COCCCOc1ccnc(C[S+]([O-])c2nc3ccccc3[nH]2)c1C (configuration not stated) [Rabeprazole]
Condition not met

Is 90 strictly greater than the compound's reported cell viability? compound: COC(=O)Nc1nc2ccc(C(=O)c3ccc(F)cc3)cc2[nH]1 [Flubendazole]
Condition met

Is 90 strictly greater than the compound's reported cell viability? compound: OC[C@@H](O)[C@@H](O)[C@H](O)[C@H](O)CO [D-Mannitol]
Condition met

Is 90 strictly greater than the compound's reported cell viability? compound: C=CC(=O)N1CCCC(n2nc(-c3ccc(Oc4ccccc4)cc3)c3c(N)ncnc32)C1 (configuration not stated)
Condition met

Is 90 strictly greater than the compound's reported cell viability? compound: COc1cc(C(=O)O)ccc1NC(=O)C1NC(CC(C)(C)C)C(C#N)(c2ccc(Cl)cc2F)C1c1cccc(Cl)c1F (configuration not stated)
Condition not met

Is 90 strictly greater than the compound's reported cell viability? compound: CCCNC(C)C(=O)Nc1c(C)csc1C(=O)OC.Cl (configuration not stated) [Articaine HCl]
Condition not met

Is 90 strictly greater than the compound's reported cell viability? compound: COc1cc2c(Oc3ccc4[nH]c(C)cc4c3F)ncnc2cc1OCCCN1CCCC1 [Cediranib (AZD217)]
Condition met

Is 90 strictly greater than the compound's reported cell viability? compound: CN1C(C(=O)Nc2ccccn2)=C(O)c2sc(Cl)cc2S1(=O)=O [Lornoxicam]
Condition met

Is 90 strictly greater than the compound's reported cell viability? compound: CS(=O)(=O)c1ccc(C(O)C(CO)NC(=O)C(Cl)Cl)cc1 (configuration not stated) [Thiamphenicol]
Condition met

Is 90 strictly greater than the compound's reported cell viability? compound: CCC(=O)OC1(C(=O)CCl)C(C)CC2C3CC(F)C4=CC(=O)C=CC4(C)C3(F)C(O)CC21C (configuration not stated) [Halobetasol Propionate]
Condition not met

Is 90 strictly greater than the compound's reported cell viability? compound: Cl.O=C1c2cccc3c2C(CCC3)CN1C1CN2CCC1CC2 (configuration not stated) [Palonosetron HCl]
Condition met

Is 90 strictly greater than the compound's reported cell viability? compound: CCC1OC(=O)CC(O)C(C)C(OC2OC(C)C(O)C(N(C)C)C2O)C(CCN2CC(C)CC(C)C2)CC(C)C(=O)C=CC(C)=CC1COC1OC(C)C(O)C(OC)C1OC (configuration not stated) [Tilmicosin]
Condition met

Is 90 strictly greater than the compound's reported cell viability? compound: Cl.NC12CC3CC(CC(C3)C1)C2 [Amantadine HCl]
Condition not met

Is 90 strictly greater than the compound's reported cell viability? compound: CN(C)CCCN1c2ccccc2CCc2ccc(Cl)cc21.Cl [Clomipramine HCl]
Condition met

Is 90 strictly greater than the compound's reported cell viability? compound: O=C([O-])c1cc(=O)c2c(OCC(O)COc3cccc4oc(C(=O)[O-])cc(=O)c34)cccc2o1.[Na+].[Na+] [Cromolyn sodium]
Condition not met

Is 90 strictly greater than the compound's reported cell viability? compound: NC1CCCCC1N.O=C([O-])C(=O)[O-].[Pt+2] (configuration not stated) [Oxaliplatin]
Condition not met

Is 90 strictly greater than the compound's reported cell viability? compound: Cc1c(OCC(F)(F)F)ccnc1CS(=O)c1nc2ccccc2[n-]1.[Na+] (configuration not stated) [Lansoprazole sodium]
Condition not met
